meta.source: paper PMC9697187

experiment: in vivo; design: species or system cat; details: male, iv, 7 mg/kg, Cmax of GS-441524
Observed Property: Cmax

- N#C[C@@]1(c2ccc3c(N)ncnn23)O[C@H](CO)[C@@H](O)[C@H]1O: 6.9 µM

---

experiment: Single dose pharmacokinetics of orally administered MPV in SPF cats; type: in vivo, cat; settings: serum MPV, 10 mg/kg oral molnupiravir, mean of 3 cats; 10 mg/kg
Observed Property: Cmax (nM)

• CC(C)C(=O)OC[C@H]1O[C@@H](n2ccc(NO)nc2=O)[C@H](O)[C@@H]1O = 40

---

Entries and their measured pEC50 follow.
tested on: FIPV serotype II (WSU-79-1146); experiment: Combined anticoronaviral therapy; assay type: cell-based, feline infectious peritonitis virus (FIPV); conditions: Alphacoronavirus 1; WSU-79-1146, CRFK cells; alone and combined determined concurrently; read-out: EC50, combination experiment (A) nirmatrelvir and MPV
pEC50: −log10 of the molar value.
Observed Property: pEC50

• CC(C)(C)[C@H](NC(=O)C(F)(F)F)C(=O)N1C[C@H]2[C@@H]([C@H]1C(=O)N[C@H](C#N)C[C@@H]1CCNC1=O)C2(C)C [nirmatrelvir] = 5.88
• CC(C)C(=O)OC[C@H]1O[C@@H](n2ccc(NO)nc2=O)[C@H](O)[C@@H]1O [MPV, molnupiravir] = 6.16

---

Consider the following molecules and their measured EC50 readings.
system: FIPV serotype II (WSU-79-1146); test: Colorimetric CPE bioassay; assay type: cell-based, feline infectious peritonitis virus (FIPV); settings: Alphacoronavirus 1, CRFK, 72 h, read-out: EC50 against WSU-79-1146 (serotype II FIPV)
Observed Property: EC50

• N#C[C@@]1(c2ccc3c(N)ncnn23)O[C@H](CO)[C@@H](O)[C@H]1O = 610 nM
• CC(C)C(=O)OC[C@H]1O[C@@H](n2ccc(NO)nc2=O)[C@H](O)[C@@H]1O = 700 nM

---

assay: Single dose pharmacokinetics of orally administered MPV in SPF cats; assay type: in vivo, cat; settings: male, serum, po, 10 mg/kg, 10 mg/kg oral molnupiravir, mean of 3 cats; read-out: AUC0-t of MPV
Observed Property: AUC(0-t) (µM·h)

- CC(C)C(=O)OC[C@H]1O[C@@H](n2ccc(NO)nc2=O)[C@H](O)[C@@H]1O: 0.085

---

system: FIPV serotype II (WSU-79-1146); assay: Colorimetric CPE bioassay; format: cell-based, feline infectious peritonitis virus (FIPV); details: CRFK cells, MOI 0.1, 72 h, monotherapy; read-out: EC50 against WSU-79-1146 (serotype II FIPV)
pEC50: −log10 of the molar value.
Observed Property: pEC50

• O=c1nc(NO)ccn1[C@@H]1O[C@H](CO)[C@@H](O)[C@H]1O [NHC, β-D-N^4-hydroxycytidine] = 6.96
